biological target: Calmodulin-Dependent Phosphodiesterase (Ca^2+ PDE); assay: Calmodulin-Dependent Phosphodiesterase Inhibition (Ca^2+ PDE); format: biochemical, rat; conditions: [^3 H]-cGMP, 30° C.
Entries and their IC50
Please state the number and follow it with the unit.

Answered cases to consult:
CN(C(Cc1ccc(N)cc1)C(=O)N1CCN(c2ccccc2)CC1)S(=O)(=O)c1cccc2cnccc12 (stereo not shown) [Example 13] = 15 µM
CN(c1ccccc1NCC=Cc1ccc(Cl)cc1)S(=O)(=O)c1cccc2cnccc12 [Example 143] = 15 µM
CN(c1ccc(CC(C(=O)N2CCN(c3ccccc3)CC2)N(C)S(=O)(=O)c2cccc3cnccc23)cc1)S(C)(=O)=O (stereo not shown) [Example 24] = 63 µM

Okay, now this molecule:
Measured IC50, CN(C(Cc1ccc(NS(=O)(=O)c2cccc3ccccc23)cc1)C(=O)N1CCN(c2ccccc2)CC1)S(=O)(=O)c1cccc2cnccc12 (stereo not shown) [Example 20] : 23 µM

* * *

tested on: superior mesenteric artery (contracted by potassium chloride); assay: Vessel Smooth Muscle Relaxation Action (V.R.); format: cell-based, rabbit; conditions: Oryctolagus cuniculus, read-out: V.R. (ED50)
property: pEC50
In simple prose, pEC50 is minus the logarithm base ten of a concentration in moles per litre.

pEC50 measured on O=S(=O)(NCCNCC=Cc1ccc(Br)cc1)c1cccc2cnccc12 = 5.92

* * *

Reported log10 IC50 values for the following compounds.
target: Calmodulin-Dependent Phosphodiesterase (Ca^2+ PDE); experiment: Calmodulin-Dependent Phosphodiesterase Inhibition (Ca^2+ PDE); details: [^3 H]-cGMP, 30° C.
The base-10 logarithm of IC50, taken with IC50 in µM, is what appears here.

Solved entries:
CN(C(Cc1ccc(O)cc1)CN1CCN(c2ccccc2)CC1)S(=O)(=O)c1cccc2cnccc12 (centres unmarked) [Example 36] = 1.02
CN(C(Cc1ccc(OS(=O)(=O)c2cccc3ccccc23)cc1)CN1CCN(c2ccccc2)CC1)S(=O)(=O)c1cccc2ccccc12 (centres unmarked) [Example 57] = 1.70

The reported log10 IC50 of the compound CC(C)c1ccc(C=CCNCCNS(=O)(=O)c2cccc3cnccc23)cc1 [Example 177] was 1.38

So for O=S(=O)(NCCNCC=Cc1ccc(C(F)(F)F)cc1)c1cccc2cnccc12 [Example 179] , the logged log10 IC50 turned out to be 0.89

Lab note: measured log10 IC50 of O=S(=O)(NCCNCC=CC=Cc1ccc(C(F)(F)F)cc1)c1cccc2cnccc12 [Example 180] was 0.68

Kindly note the recorded log10 IC50 for CC(C=Cc1ccccc1[N+](=O)[O-])NCCNS(=O)(=O)c1cccc2cnccc12 (centres unmarked) [Example 158] , which is 1.32

Documented log10 IC50 of Cc1ccc(CN(C(Cc2ccc(O)cc2)CN2CCC(O)CC2)S(=O)(=O)c2cccc3cnccc23)cc1 (centres unmarked) [Example 106] : 1.45

Documented log10 IC50 of CC(C=Cc1ccc([N+](=O)[O-])cc1)NCCNS(=O)(=O)c1cccc2cnccc12 (centres unmarked) [Example 159] : 1.96

* * *

Catalogue of compounds with associated IC50
target: Calmodulin-Dependent Phosphodiesterase (Ca^2+ PDE); assay: Calmodulin-Dependent Phosphodiesterase Inhibition (Ca^2+ PDE); conditions: [^3 H]-cGMP, 30° C.
State the answer as a number, implicitly in µM.

Solved entries (count: 3):
O=C(CCc1ccccc1)N1CCCN(CC(Cc2ccc(O)cc2)NS(=O)(=O)c2cccc3cnccc23)CC1 (stereo not shown) [Example 119] = 51
CN([C@@H](Cc1ccc(O)cc1)C(=O)N1CCN(c2ccccc2)CC1)S(=O)(=O)c1cccc2cnccc12 [Example 110] = 9.3
CN(C(Cc1ccc(OS(=O)(=O)c2cccc3cnccc23)cc1)CN1CCC(O)CC1)S(=O)(=O)c1cccc2cnccc12 (stereo not shown) [Example 99] = 61

Value of IC50 reported for the compound O=S(=O)(NC(Cc1ccc(O)cc1)CN1CCCN(c2ccccc2)CC1)c1cccc2cnccc12 (stereo not shown) [Example 82] is 33
